test system: NCI/ADR-RES ovarian; assay: NCI-60 one-dose screen, 48 h; conditions: 10 µM unless noted
About 83,000 compounds went through this panel and 20% of them were active in at least one assay; those are over-represented in the sample as a whole. Activity calls are given as the source filed them. The calls were made as follows: active = growth percent below 10; inactive = the rest.
Hi! Could you answer with just one of these? active, inactive

molecule | assigned.class
O=C1/C(=C/C=C/c2ccco2)SC(=S)N1CC(=S)C1C=CS(=O)(=O)C1 (centres undefined) | inactive
COc1ccc2c(c1)C(Sc1ccc(F)cc1)c1c(nc(N)c(C#N)c1N)O2 (centres undefined) | inactive
Cn1cc(-c2cc(N)n3nc(-c4c[nH]c5ccccc45)cc3n2)c2ccccc21 | active
O=C1c2cccc3c(N4CCN(Cc5ccccc5)CC4)ccc(c23)C(=O)N1c1cccc(-c2nn(-c3ccccc3)cc2-c2nc3ccccc3s2)c1 | inactive

Task item: Test call, this molecule: "N#Cc1ccc(C(=O)NNC(=O)CSc2nc3sc4c(c3c(=O)n2-c2ccc(Cl)cc2)CCCC4)cc1"
Reply: inactive

Task item: Test call, this molecule: "COc1cccc(-c2ccc(/C=N/NC(=O)c3[nH]c4ccc(Br)cc4c3-c3ccccc3)s2)c1"
Reply: active

Task item: Test call, this molecule: COc1cc(C2CC(c3cc(OC)c(OC)c(OC)c3)=Nc3c(N)nc(N)nc3N2)ccc1Oc1nc(Nc2ccc(F)cc2)nc(N(C)C)n1 (centres undefined)
Reply: inactive

Task item: Test call, this molecule: COc1c2c(cc3c1C(CCc1ccccc1)N(C)CC3)OCO2 (centres undefined)
Reply: active

Task item: Test call, this molecule: "Cc1ccc(NC(=O)N/N=C/c2c[nH]c3ccccc23)c(C)c1"
Reply: active
